Target: recombinant human CXCR2 (Homo sapiens)
Construct: TEV protease site; Gal4-VP16 transcription factor
Test: CXCR2 Tango assay
Assay type: cell-based
Conditions: mean pIC50 of multiple test results; stimulated with 80 nM hCXCL1; reporter gene blue/green emission ratio; read-out: pIC50 (CXCR2 Tango assay) (converted)
// reported IC50 per item

For `O=C(O)C(F)(F)F.[2H]C([2H])([2H])N1CCC(C)(S(=O)(=O)c2c(Cl)ccc(NC(=O)N[C@@H]3CCC=C3C)c2O)CC1` the molecule record lists IC50 as ≤ 10 nM

For `COC[C@@H](C)S(=O)(=O)c1c(Cl)ccc(NC(=O)N[C@@H]2CCC=C2C)c1O` the molecule record lists IC50 as ≤ 1 nM

For O=C(Nc1ccc(Cl)c(S(=O)(=O)[C@H]2CCOC2)c1O)NC1C=CCC1 (some centres unmarked) the molecule record lists IC50 as ≤ 10 nM

###

Molecular target: recombinant human CXCR2 (Homo sapiens, UniProt P25025)
Construct: TEV protease site; Gal4-VP16 transcription factor
Assay: CXCR2 Tango assay
Format: cell-based
Conditions: mean pIC50 of multiple test results; stimulated with 80 nM hCXCL1; reporter gene blue/green emission ratio; read-out: pIC50 (CXCR2 Tango assay) (converted)
Source text: The assay measures ligand-induced activation of the receptor CXCR2 in a stable cell line containing the recombinant human CXCR2 linked to a TEV protease site and a Gal4-VP16 transcription factor (Invitrogen). […] The ability of a compound to inhibit CXCR2 activation is indirectly assessed by measuring the reporter gene activity. […]
Counter-ions that a name gives are not always drawn.
PROPERTY LABEL: IC50

Worked set:
{"COMPOUND": "CC1=CCC[C@H]1NC(=O)Nc1ccc(Cl)c(S(=O)(=O)C2(C)CC3(COC3)C2)c1O", "OBS VALUE": "≤ 10 nM"}
{"COMPOUND": "CC1(S(=O)(=O)c2c(Cl)ccc(NC(=O)N[C@@H]3CCC=C3Cl)c2O)COC1", "OBS VALUE": "> 10000 nM"}

For CN(C)C[C@H]1C[C@@H](S(=O)(=O)c2c(Cl)ccc(NC(=O)NC3CCC=C3Cl)c2O)C1 (stereo partly shown) [Compound 132, trifluoroacetic acid salt] the compound record lists IC50 as ≤ 10 nM

For CC1=CCCC1NC(=O)Nc1ccc(Cl)c(S(=O)(=O)C(C)(C)C(F)(F)F)c1O (stereo not shown) the compound record lists IC50 as ≤ 1 nM

For O=C(Nc1ccc(Cl)c(S(=O)(=O)[C@H]2CC[C@H](N3CCC3)CC2)c1O)NC1CCC=C1Cl (stereo partly shown) [Compound 178, trifluoroacetic acid salt] the compound record lists IC50 as ≤ 10 nM

For CC1=CCC[C@H]1NC(=O)Nc1ccc(Cl)c(S(=O)(=O)C2(C)CCN(C3CCC3)CC2)c1O [Compound 67, trifluoroacetic acid salt] the compound record lists IC50 as ≤ 10 nM

For `CC1=CCC[C@H]1NC(=O)Nc1ccc(Cl)c(S(=O)(=O)C(C)(C)[C@@H]2CCOC2)c1O` the compound record lists IC50 as ≤ 10 nM

###

Target: recombinant human CXCR2 (Homo sapiens)
Construct: TEV protease site; Gal4-VP16 transcription factor
Sequence (P25025 1-360): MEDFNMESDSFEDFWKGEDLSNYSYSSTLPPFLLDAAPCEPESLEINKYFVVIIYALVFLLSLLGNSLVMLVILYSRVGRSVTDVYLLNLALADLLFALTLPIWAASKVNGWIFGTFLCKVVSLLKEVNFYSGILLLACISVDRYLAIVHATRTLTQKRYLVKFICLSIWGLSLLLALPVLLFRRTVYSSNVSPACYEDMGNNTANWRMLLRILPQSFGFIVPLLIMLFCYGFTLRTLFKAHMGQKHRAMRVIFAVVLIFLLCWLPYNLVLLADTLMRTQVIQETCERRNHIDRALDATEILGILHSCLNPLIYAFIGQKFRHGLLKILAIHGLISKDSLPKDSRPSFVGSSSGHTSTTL
Assay: CXCR2 Tango assay
Assay type: cell-based
Details: mean pIC50 of multiple test results; stimulated with 80 nM hCXCL1; reporter gene blue/green emission ratio; read-out: pIC50 (CXCR2 Tango assay) (converted)
Description: The assay measures ligand-induced activation of the receptor CXCR2 in a stable cell line containing the recombinant human CXCR2 linked to a TEV protease site and a Gal4-VP16 transcription factor (Invitrogen). […] The ability of a compound to inhibit CXCR2 activation is indirectly assessed by measuring the reporter gene activity. […]
Structures can show the parent of a compound that is named as a salt.
// reported IC50 per item

{"MOLECULE": "CC(c1ccccn1)S(=O)(=O)c1c(Cl)ccc(NC(=O)NC2C=CCC2)c1O (stereo not drawn) [Compound 24, trifluoroacetic acid salt]", "IC50": "≤ 10 nM"}
{"MOLECULE": "CC1=CCCC1NC(=O)Nc1ccc(Cl)c(S(=O)(=O)N2CCn3ccnc3C2)c1O (stereo not drawn) [Compound 117]", "IC50": "≤ 10 nM"}
{"MOLECULE": "CN(C)[C@H]1C[C@H](S(=O)(=O)c2c(Cl)ccc(NC(=O)NC3CCC=C3Cl)c2O)C1 (stereo partly drawn) [Compound 134]", "IC50": "≤ 10 nM"}

Result for CC1=C(Cl)CCC1NC(=O)Nc1ccc(Cl)c(S(=O)(=O)C(C)C)c1O (stereo not drawn) [Compound 16] , tested on recombinant human CXCR2 (Homo sapiens), IC50: ≤ 10 nM

Result for CC1=CCC[C@H]1NC(=O)Nc1ccc(Cl)c(S(=O)(=O)N2CCCCC2)c1O [Compound 91, trifluoroacetic acid salt] , tested on recombinant human CXCR2 (Homo sapiens), IC50: ≤ 1 nM

Result for CC(F)(F)S(=O)(=O)c1c(Cl)ccc(NC(=O)NC2C=CCC2)c1O (stereo not drawn) [Compound 36] , tested on recombinant human CXCR2 (Homo sapiens), IC50: ≤ 10 nM

Result for CC1=CCCC1NC(=O)Nc1ccc(Cl)c(S(=O)(=O)C(C)(C)CF)c1O (stereo not drawn) [Compound 104] , tested on recombinant human CXCR2 (Homo sapiens), IC50: ≤ 10 nM

Result for O=C(Nc1ccc(Cl)c(S(=O)(=O)[C@H]2C[C@@H](O)C2)c1O)N[C@@H]1CCC=C1Cl [Compound 162] , tested on recombinant human CXCR2 (Homo sapiens), IC50: ≤ 1 nM

Result for CO[C@H]1C[C@@H](S(=O)(=O)c2c(Cl)ccc(NC(=O)NC3CCC=C3Cl)c2O)C1 (stereo partly drawn) [Compound 149] , tested on recombinant human CXCR2 (Homo sapiens), IC50: ≤ 10 nM
